Biological target: HRAS G12V (Homo sapiens, UniProt P01112, G12V)
Construct: expressed in transfected cells; host or cells: HeLa
Sequence (P01112 1-186 G12V limits assumed): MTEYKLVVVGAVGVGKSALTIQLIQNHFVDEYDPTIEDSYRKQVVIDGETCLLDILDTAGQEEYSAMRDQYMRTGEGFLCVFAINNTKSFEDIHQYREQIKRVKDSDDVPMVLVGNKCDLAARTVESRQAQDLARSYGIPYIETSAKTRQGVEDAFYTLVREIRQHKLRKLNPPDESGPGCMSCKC
Experiment: NanoBiT assay for RAS GTP-loading (LgBit-HRAS G12V / SmBit-CRAF-RBD) in HeLa cells
Type: cell-based
Conditions: NanoBiT, HeLa cells, 2 h in serum-free DMEM; read-out: IC50 (nM) HRAS G12V

{"MOLECULE": "COc1cc(OC)c2c(c1)O[C@@]1(c3ccc(Cl)cc3)[C@H](c3ccccc3)C[C@@H](O)[C@@]21O [Compound C-1, reference compound]", "SCALE UNIT": "nM", "IC50": 53.5}

This collection of values is drawn from patent US20260216121A1.
